Quick reference for yeast fitness among some variants
B1: tRNA (parent)
chain: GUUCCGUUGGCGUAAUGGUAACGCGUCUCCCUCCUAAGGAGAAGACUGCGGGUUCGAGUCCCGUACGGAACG

Variants of: B1
Experiment: yeast fitness relative to wild type (ratio to wild type); higher = fitter; tRNA-Arg(CCU), competitive growth, 37 C, YPD
Fewer inactive variants are shown than the library holds.
ASSAY METRIC: yeast fitness

[[record]]
sequence_content = "GUUCCGUUGGCGUAAUGGUAAGGCGUCUCCCUCCUAAGGAGAAGACAGCGGGUUCGAGUCCCGUACGGACCG [C22G U47A A70C]"
value_observed = "≤ 0.5"

[[record]]
sequence_content = "GUUCCGUUGGCGUAAUGGUAACGCGUCUCCCUCCCAAGGAGAAGCCUGGGGGUUCAUGUCCCAUACGGAACG [U35C A45C C49G G56A A57U G63A]"
value_observed = "≤ 0.5"

[[record]]
sequence_content = "GUUCCGUUGGCGUAAUGGUAACGCGUCUCCUUCCUAAGGACACGACUGCGGGUUCGAGUGCCGUACGGAACG [C31U G41C A43C C60G]"
value_observed = "≤ 0.5"

[[record]]
sequence_content = "GUUCCGUUGGCAUAAUGGUAACACGUGUCGCUCCUAAGGAGAAGACUGCGGGUUCGAGUCCCGUACGGAACG [G12A G23A C27G C30G]"
value_observed = "≤ 0.5"

[[record]]
sequence_content = "GUUCCGUCGGCGUAAUGGUAACGCGUCUCCUUCCUAAGGAGAAGAAUGAGGGUUCGAGUCCCGUACGGAACG [U8C C31U C46A C49A]"
value_observed = "≤ 0.5"

[[record]]
sequence_content = "GUUCCGUUGGCGUAAUGGUAACGCCUCUCCCUCCUAAGGAGAAGACUGCGGGAUUGAGUCCCGUACGGAACG [G25C U53A C55U]"
value_observed = "≤ 0.5"

[[record]]
sequence_content = "GUUCCGUUGGCGUAAUGGCCACGCGUCUCCGUCCUAAGGAGAAGACUGCGGGUUCGAGUCCCGUACGGACCG [U19C A20C C31G A70C]"
value_observed = "≤ 0.5"

[[record]]
sequence_content = "GUUCCGUUGGCGUAGUGGUAACGCGUCUCCCUCCUGAGGAGAAGACUGCGGGUUCUAGUCCUGUACGGAACG [A15G A36G G56U C62U]"
value_observed = "≤ 0.5"

[[record]]
sequence_content = "GUUCUGUUGGCGUAAUGGUAACGCGUCUCCCACCUAAGGAGAAGACUGCGGGUUCGAGUCCCGUAUGGAACG [C5U U32A C66U]"
value_observed = 0.578

[[record]]
sequence_content = "GGUCCGUUGGCGUAAUGGUAAAGCAUCUCCCUCCUAAGGAGAAGACUGCGGGUUCAAGUCCCGUACGGAACG [U2G C22A G25A G56A]"
value_observed = "≤ 0.5"

[[record]]
sequence_content = "GUUCCAUUGGCGUUAUGGUAAUGCGUCUCCCUCCUAGGGAGAAGACUGCGGGUUCGAGUCCCGUACGGAACG [G6A A14U C22U A37G]"
value_observed = "≤ 0.5"

[[record]]
sequence_content = "GUUCCGUUGGCGUAAUGGUAACGGGUCUCCCUCCUAAGGAGAAGACUACGGGUUCGAGUCCCGUACGGAACG [C24G G48A]"
value_observed = 0.588

[[record]]
sequence_content = "GUUCCGUUGGCGUAAUGGUAACGCGUCUCCCUCCUAAAGAGCAGACUGCGGGUCCGAGUCCGGUCAGGAACG [G38A A42C U54C C62G A65C C66A]"
value_observed = "≤ 0.5"

[[record]]
sequence_content = "GCUCCGUUGGCGUGAUGGUAACGCGUCUCCCUCCUCAGGAGAAGACAGCGGGUUCGAGUCACGUACGGAACG [U2C A14G A36C U47A C61A]"
value_observed = "≤ 0.5"

[[record]]
sequence_content = "GUUCCGUUAGCGUAACGGUCACGCGUCUCCCUCCUAAGGAGAAGACUGCGGGUUCGAGUCUCGUACGGAACG [G9A U16C A20C C61U]"
value_observed = "≤ 0.5"

[[record]]
sequence_content = "GUUCCGUUGGCGUAAUGGUAACGUGUCUCCCUCCUAAGGAGAAGCCUGCGGGUUCGAGUCCCGUACGGAACG [C24U A45C]"
value_observed = 0.971

[[record]]
sequence_content = "GUUCCGUUGGCGUAAUGGUCACGUGUGUCCCUCCUAAGGAGAAGACUGAGGGCUCGAGUCCGGUACGGAACG [A20C C24U C27G C49A U53C C62G]"
value_observed = "≤ 0.5"

[[record]]
sequence_content = "GUUCCGUUGGCGUAAUGGUAACGCGUCUCGCUGCUCUGGAGAUGACUGCGGGUUCGAGUCCCGUACGGAACG [C30G C33G A36C A37U A43U]"
value_observed = "≤ 0.5"

[[record]]
sequence_content = "GUUCCGUUGGCGUAAUGGUAUCGCGUCUCCCUCCUAAGGAGAAGACUGGGGGUUCGAGUCCCGUACGGAACG [A21U C49G]"
value_observed = 0.618

[[record]]
sequence_content = "GUUCCGUCGGCGUAAAGGUAGCGCGUCUCCCUCCUAAGGAGAAGACUGCGGGUUCGAGUCCCGUACGGAACG [U8C U16A A21G]"
value_observed = "≤ 0.5"

[[record]]
sequence_content = "GUUCCGUUGGCGUAAUGGUAACGCGUCUCCCUCCUAAGGAGAAGACUGGGGGUUCAAGUCCCAUACGGAACG [C49G G56A G63A]"
value_observed = 0.584

[[record]]
sequence_content = "GUUCUGCUGGCGUAAUGGUAACGCGUCUCCCUCCUAAGGCGAAGACUGCGGGUUCGAGUCCCGUAUGGAACG [C5U U7C A40C C66U]"
value_observed = "≤ 0.5"

[[record]]
sequence_content = "GUUCCGUUGGCGUAAUGGUAACGCGUCUCACUCCUCAGGAGAAGACUGCGGGUUCGAGUCCCGUACGGAACG [C30A A36C]"
value_observed = 0.579

[[record]]
sequence_content = "GUUCCGUUCGCGUAAUGGUAACGCGUCUACCUCCUAAGGAGAAGACUGCGGGUUCGAGUCCCGUACGGAACG [G9C C29A]"
value_observed = 0.601

[[record]]
sequence_content = "GUUCCAUCGGCGUAAUGGUCACGCGUUUCCCUCCUAAGGAGAAGACUGCGGGUUCGAGUCCCGUACGGAACG [G6A U8C A20C C27U]"
value_observed = "≤ 0.5"

[[record]]
sequence_content = "GUUCCGUUGGCGUAAUGGUAUCGCGUCUACCUCCUAAGGAGAAGACUGCGGGUUCGAGUCCCGUACGGAACG [A21U C29A]"
value_observed = 0.751

[[record]]
sequence_content = "GUUCCGUGGGCGGAAUGGUAACCCGUCUCCCUCCUAAGGCGAAGACUGCGGGUUCGAGUCCCAUACGGAACG [U8G U13G G23C A40C G63A]"
value_observed = "≤ 0.5"

[[record]]
sequence_content = "GUUCCGUUGGCGUGAUGGUAACGCGUCUCCCUCCUAAGGAGCAGACUGCAGGUUCGAGUCCCGUACGGACCG [A14G A42C G50A A70C]"
value_observed = 0.593

[[record]]
sequence_content = "GUUCCGUUGGCGUAAUGGUAACGCGUCUCCGUCCUAAGGAGAUGAGUGCGGGUUCGAGUCCCGUAUGGAUCG [C31G A43U C46G C66U A70U]"
value_observed = "≤ 0.5"

[[record]]
sequence_content = "GUUCCGUUGGCGUAAUGGUAACGCGUGUCCCUCCUAAGGAGAGGACUGCGGGUUCGAGUCCCGUACGGAACG [C27G A43G]"
value_observed = 0.636

[[record]]
sequence_content = "GUUCCGAUGGCGUAAUAGUAACGCGUCUUCCUCCUAAGGAGAAGACUGCGGGUUCGAGUCCCGUACGGAACG [U7A G17A C29U]"
value_observed = "≤ 0.5"

[[record]]
sequence_content = "GUUCCGUUGGCGUAAUGAUAACGCGGCUCCCUCCUAAGGAGUAGACUGCGGGUUCGAGUCCCGUGGGAAACG [G18A U26G A42U A65G C66G G68A]"
value_observed = "≤ 0.5"

[[record]]
sequence_content = "GUUCCGUUGGCGUAUUGCUAGCGCGUCUCCCUCCUAAGGAGAAGACUGCGGGUUCGAGACGCGUACGGAACG [A15U G18C A21G U59A C61G]"
value_observed = "≤ 0.5"

[[record]]
sequence_content = "GUUCCAUUGGCGUAAUGCUAACGCGUCUCCCUCCUACGGAGAAGACUGCGGGUUCGAGUGCCGUGCGGAACG [G6A G18C A37C C60G A65G]"
value_observed = "≤ 0.5"

[[record]]
sequence_content = "GUCCCGUUGGCGUAAUGGUAACGCGCCUCCCUCCUAAGGAGUAGACUGCGGGUUCGAGUGCCGUACAGAACG [U3C U26C A42U C60G G67A]"
value_observed = "≤ 0.5"

[[record]]
sequence_content = "GGUCCGUUGGCGUAAUGGUAACGCGUCUCCGUCCUAGGGAGAAGACUGCGGGUUCGAGUCCCGUACGGAACG [U2G C31G A37G]"
value_observed = 0.605

[[record]]
sequence_content = "GUUCCGUUGGCGUGAUGGUAACGCGUCUCACUCCUAAGGAGGAAACUGCGGGUUCGAGUCCCGUACGGAACG [A14G C30A A42G G44A]"
value_observed = 0.569

[[record]]
sequence_content = "GUUCCGUUGGCGUAAUGGUAACGCGUCGCCCUCCUAAGGAGAAGACUGCGCGUUGGAGUCCCGUACGGAACG [U28G G51C C55G]"
value_observed = "≤ 0.5"

[[record]]
sequence_content = "GUUCCGUUGGUGUACUCGUAAUGCGUCUCCCUCGUAAGGAGAAGACUGCGGGUUCGAGUCCCGUACGGAACG [C11U A15C G17C C22U C34G]"
value_observed = "≤ 0.5"


Source of measurements: the RNAGym collection of RNA variant scans (doi:10.1126/science.aae0568)
